Cited source: ChEMBL document CHEMBL5154760

# Test system: MM1.S
# Assay Comment: Antiproliferative activity against human MM1.S cells after 72 hrs by MTS assay
# Type: functional, cell-based
Quantity Kind: IC50 (µM)

In the examples that follow, each entry is paired with its recorded IC50.
>>> measurement("CC(C)(C)CNC(=O)C[C@H](NC(=O)N1CCC(C(=O)N2CCCc3ccccc32)CC1)C(=O)N[C@@H](CCc1ccccc1)C(=O)N[C@@H]1CCCc2ccccc21")
0.0124
>>> measurement("CN(C(=O)C1CCN(C(=O)N[C@@H](CC(=O)NCC(C)(C)C)C(=O)N[C@@H](CCc2ccccc2)C(=O)N[C@@H]2CCCc3ccccc32)CC1)c1ccncc1")
0.084

[A] CN(C(=O)C1CCN(C(=O)N[C@@H](CC(=O)NCC(C)(C)C)C(=O)N[C@@H](CCc2ccccc2)C(=O)N[C@@H]2CCCc3ccccc32)CC1)c1cccnc1
[B] CN(C(=O)c1cccnc1)C1CCN(C(=O)N[C@@H](CC(=O)NCC(C)(C)C)C(=O)N[C@@H](CCc2ccccc2)C(=O)N[C@@H]2CCCc3ccccc32)CC1
[C] CC(C)C[C@H](NC(=O)[C@H](CCc1ccccc1)NC(=O)CN1CCOCC1)C(=O)N[C@@H](Cc1ccccc1)C(=O)N[C@@H](CC(C)C)C(=O)[C@]1(C)CO1
[D] CN(C(=O)C1CCN(C(=O)N[C@@H](CC(=O)NCC(C)(C)C)C(=O)N[C@@H](CCc2ccccc2)C(=O)N[C@@H]2CCCc3ccccc32)CC1)c1ccccn1
Ask | Give the ascending ranking of the items by reported IC50. Put the labels in the order asked and list them.
Reply | C, D, B, A
(C: 0.00915 µM, D: 0.0206 µM, B: 0.0335 µM, A: 0.0542 µM)

* * *

# Tested on: MM1.S
# Assay Comment: Antiproliferative activity against human MM1.S cells after 72 hrs by MTS assay
# Format: functional, cell-based
Quantity Kind: IC50 (nM)

[a] CC(C)(C)CNC(=O)C[C@H](NC(=O)N1CCC(C(=O)Nc2cccnc2)CC1)C(=O)N[C@@H](CCc1ccccc1)C(=O)N[C@@H]1CCCc2ccccc21
[b] CN(C(=O)C1CCN(C(=O)N[C@@H](CC(=O)NCC(C)(C)C)C(=O)N[C@@H](CCc2ccccc2)C(=O)N[C@@H]2CCCc3ccccc32)CC1)c1nccs1
Ask | When a and b are compared, which has the higher number for IC50? Write down the label attached to your selection.
Reply | a

[1] CN(C(=O)C1CCN(C(=O)N[C@@H](CC(=O)NCC(C)(C)C)C(=O)N[C@@H](CCc2ccccc2)C(=O)N[C@@H]2CCCc3ccccc32)CC1)c1ccc(F)cc1
[2] CN(C(=O)C1CCN(C(=O)N[C@@H](CC(=O)NCC(C)(C)C)C(=O)N[C@@H](CCc2ccccc2)C(=O)N[C@@H]2CCCc3ccccc32)CC1)c1ccccc1
Ask | When 1 and 2 are compared, which has the higher number for IC50? Write down the label attached to your selection.
Reply | 1
(1: 17.7 nM, 2: 8.82 nM)

[A] CC(C)(C)CNC(=O)C[C@H](NC(=O)N1CCC(C(=O)N2CCc3ccccc32)CC1)C(=O)N[C@@H](CCc1ccccc1)C(=O)N[C@@H]1CCCc2ccccc21
[B] CN(C(=O)C1CCN(C(=O)N[C@@H](CC(=O)NCC(C)(C)C)C(=O)N[C@@H](CCc2ccccc2)C(=O)N[C@@H]2CCCc3ccccc32)CC1)c1ccc(Cl)cc1
[C] CCN(C(=O)C1CCN(C(=O)N[C@@H](CC(=O)NCC(C)(C)C)C(=O)N[C@@H](CCc2ccccc2)C(=O)N[C@@H]2CCCc3ccccc32)CC1)c1ccccc1
Ask | Give the ascending ranking of the items by reported IC50. Put the labels in the order asked and list them.
Reply | C, A, B
(C: 9.07 nM, A: 16.9 nM, B: 26.9 nM)

* * *

# System: RPMI-8226
# Assay Comment: Antiproliferative activity against human RPMI-8226 cells after 72 hrs by MTS assay
# Format: functional, cell-based
# Measurement Context: RPMI-8226, 72 h
Quantity Kind: IC50 (µM)

In the examples that follow, each entry is paired with its recorded IC50.
>>> measurement("CN(C(=O)C1CCN(C(=O)N[C@@H](CC(=O)NCC(C)(C)C)C(=O)N[C@@H](CCc2ccccc2)C(=O)N[C@@H]2CCCc3ccccc32)CC1)c1cccnc1")
0.0817
>>> measurement("CC(C)(C)CNC(=O)C[C@H](NC(=O)N1CCC(C(=O)N2CCCc3ccccc32)CC1)C(=O)N[C@@H](CCc1ccccc1)C(=O)N[C@@H]1CCCc2ccccc21")
0.024
>>> measurement("CN(C(=O)C1CCN(C(=O)N[C@@H](CC(=O)NCC(C)(C)C)C(=O)N[C@@H](CCc2ccccc2)C(=O)N[C@@H]2CCCc3ccccc32)CC1)c1ccc(Cl)cc1")
0.0208

[1] CC(C)(C)CNC(=O)C[C@H](NC(=O)N1CCC(C(=O)Nc2cccnc2)CC1)C(=O)N[C@@H](CCc1ccccc1)C(=O)N[C@@H]1CCCc2ccccc21
[2] CN(C(=O)C1CCN(C(=O)N[C@@H](CC(=O)NCC(C)(C)C)C(=O)N[C@@H](CCc2ccccc2)C(=O)N[C@@H]2CCCc3ccccc32)CC1)c1nccs1
Ask | When 1 and 2 are compared, which has the higher number for IC50? Write down the label attached to your selection.
Reply | 1

* * *

# Tested on: MV4-11
# Assay Comment: Antiproliferative activity against human MV4-11 cells after 72 hrs by MTS assay
# Format: functional, cell-based
# Measurement Context: MV4-11, 72 h
Quantity Kind: IC50 (nM)

>>> measurement("CC(C)C[C@H](NC(=O)[C@H](CCc1ccccc1)NC(=O)CN1CCOCC1)C(=O)N[C@@H](Cc1ccccc1)C(=O)N[C@@H](CC(C)C)C(=O)[C@]1(C)CO1")
0.983
>>> measurement("CN(C(=O)C1CCN(C(=O)N[C@@H](CC(=O)NCC(C)(C)C)C(=O)N[C@@H](CCc2ccccc2)C(=O)N[C@@H]2CCCc3ccccc32)CC1)c1ccccc1")
2.74
>>> measurement("CN(C(=O)C1CCN(C(=O)N[C@@H](CC(=O)NCC(C)(C)C)C(=O)N[C@@H](CCc2ccccc2)C(=O)N[C@@H]2CCCc3ccccc32)CC1)c1ccc(F)cc1")
4.87

[a] CN(C(=O)C1CCN(C(=O)N[C@@H](CC(=O)NCC(C)(C)C)C(=O)N[C@@H](CCc2ccccc2)C(=O)N[C@@H]2CCCc3ccccc32)CC1)c1ccccn1
[b] CCN(C(=O)C1CCN(C(=O)N[C@@H](CC(=O)NCC(C)(C)C)C(=O)N[C@@H](CCc2ccccc2)C(=O)N[C@@H]2CCCc3ccccc32)CC1)c1ccccc1
Ask | When a and b are compared, which has the higher number for IC50? Write down the label attached to your selection.
Reply | a
(a: 4.85 nM, b: 2.46 nM)

* * *

# Assay Comment: Stability of the compound in mouse blood assessed as half-life measured by LC-MS/MS analysis
# Type: ADME, tissue-based
Quantity Kind: half-life (h)

[a] CC(C)(C)CNC(=O)C[C@H](NC(=O)N1CCC(C(=O)Nc2nccs2)CC1)C(=O)N[C@@H](CCc1ccccc1)C(=O)NCc1ccccc1Cl
[b] CN(C(=O)C1CCN(C(=O)N[C@@H](CC(=O)NCC(C)(C)C)C(=O)N[C@@H](CCc2ccccc2)C(=O)N[C@@H]2CCCc3ccccc32)CC1)c1ccccc1
[c] CN(C(=O)C1CCN(C(=O)N[C@@H](CC(=O)NCC(C)(C)C)C(=O)N[C@@H](CCc2ccccc2)C(=O)N[C@@H]2CCCc3ccccc32)CC1)c1nccs1
Ask | In ascending order of recorded half-life, list the compounds from the set above. Put the labels in the order asked and list them.
Reply | a, c, b
(a: 0.613 h, c: 1.4 h, b: 2.46 h)

* * *

# System Name: 20S proteasome
# Assay Comment: Inhibition of chymotrypsin-like activity of human 20S proteasome using Suc-Leu Leu-Val-Tyr-AMC as substrate preincubated for 15 mins followed by substrate addition measured by fluorescence assay
pIC50: −log10 of the molar value.
Quantity Kind: pIC50

[a] CC(C)(C)CNC(=O)C[C@H](NC(=O)N1CCC(NC(=O)Nc2ccc(Cl)cc2)CC1)C(=O)N[C@@H](CCc1ccccc1)C(=O)N[C@@H]1CCCc2ccccc21
[b] CN(C(=O)c1cccnc1)C1CCN(C(=O)N[C@@H](CC(=O)NCC(C)(C)C)C(=O)N[C@@H](CCc2ccccc2)C(=O)N[C@@H]2CCCc3ccccc32)CC1
[c] CN(C(=O)C1CCN(C(=O)N[C@@H](CC(=O)NCC(C)(C)C)C(=O)N[C@@H](CCc2ccccc2)C(=O)N[C@@H]2CCCc3ccccc32)CC1)c1ccccc1
[d] CC(C)(C)CNC(=O)C[C@H](NC(=O)N1CCN(C(=O)Nc2ccc(Cl)cc2)CC1)C(=O)N[C@@H](CCc1ccccc1)C(=O)N[C@@H]1CCCc2ccccc21
Ask | Descending sort on pIC50 required. Put the labels in the order asked and list them.
Reply | b, c, d, a
(b: 8.29, c: 8.03, d: 7.63, a: 7.38)
